Target: h5-HT4b (Homo sapiens, UniProt Q13639)
Construct: expressed in transfected cells; host or cells: HEK 293 (clone 9), membrane preparation
Sequence (Q13639 whole entry): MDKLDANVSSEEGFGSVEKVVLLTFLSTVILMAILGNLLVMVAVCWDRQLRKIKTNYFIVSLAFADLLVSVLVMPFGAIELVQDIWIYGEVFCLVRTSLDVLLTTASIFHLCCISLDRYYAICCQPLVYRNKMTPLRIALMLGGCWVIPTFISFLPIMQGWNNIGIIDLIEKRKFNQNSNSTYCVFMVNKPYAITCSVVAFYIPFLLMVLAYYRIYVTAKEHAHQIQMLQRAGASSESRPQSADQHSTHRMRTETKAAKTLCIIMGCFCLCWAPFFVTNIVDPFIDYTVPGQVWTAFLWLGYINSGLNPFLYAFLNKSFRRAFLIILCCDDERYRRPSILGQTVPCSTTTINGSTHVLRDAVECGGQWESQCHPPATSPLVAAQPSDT
Experiment: 5HT4 antagonism: [3H]GR113808 binding to membranes of h5-HT4b-HEK 293 clone 9 cells
Conditions: displacement of 0.1 nM [3H]GR113808, membranes of h5-HT4b-HEK 293 cells, 30 min at 25° C.; read-out: pIC50 (converted)
Below: a set of entries, each annotated with reported IC50.
Kindly provide the numeric value in nM only, without the unit symbol.

compound="COC1CN(CCCS(N)(=O)=O)CCC1CNC(=O)c1cc(C#N)cc2c1OCCCO2 (stereo not drawn) [Compound 41]" endpoint_name=IC50 value_reported=56.2
compound="Cc1cc2c(c(C(=O)NC[C@@H]3CCN(CCS(N)(=O)=O)C[C@H]3O)c1)OCCCO2 [Compound 25]" endpoint_name=IC50 value_reported=8.51
compound="NS(=O)(=O)CCCCN1CC[C@@H](CNC(=O)c2cc(F)cc3c2OCCCO3)[C@H](O)C1 [Compound 35]" endpoint_name=IC50 value_reported=0.407
compound="Cc1cc2c(c(C(=O)NC[C@@H]3CCN(CCCS(=O)(=O)NC(C)C)C[C@H]3O)c1)OCCCO2 (relative stereo) [Compound 11]" endpoint_name=IC50 value_reported=3.98
compound="Cc1cc2c(c(C(=O)NCC3CCN(CCCS(N)(=O)=O)CC3O)c1)OCCCO2 (stereo not drawn) [Compound 19]" endpoint_name=IC50 value_reported=3.39

The compound listed as COc1ccc(C(=O)NCC2(O)CCN(CCCCS(N)(=O)=O)CC2)c2c1OCCCO2 [Compound 47] has a reported IC50 of 100

The compound listed as NS(=O)(=O)CCCCN1CC[C@@H](CNC(=O)c2cc(F)cc3c2OCCO3)[C@H](O)C1 [Compound 7] has a reported IC50 of 1.86

The compound listed as NS(=O)(=O)CCCCN1CCC(CNC(=O)c2cc(Cl)c(Br)c3c2OCCCO3)C(O)C1 (stereo not drawn) [Compound 31] has a reported IC50 of 0.891

The compound listed as Nc1cc2c(c(C(=O)NC[C@@H]3CCN(CCCS(N)(=O)=O)C[C@H]3O)c1)OCCCO2 (relative stereo) [Compound 8] has a reported IC50 of 50.1

----------
Test: Metabolic stability: incubation with liver microsomes and NADPH-generating system, LC-MS
Assay type: in vitro ADME
Conditions: compound 5 μM, microsomes 1 mg/ml, 37 degrees Celsius
Would you please tag the item T when its % metabolised compound after 60 minutes is 8% or above, and F when it is below?

molecule=NS(=O)(=O)CCCCN1CC[C@@H](CNC(=O)c2cc(F)cc3c2OCCCO3)[C@H](O)C1 discrete_label=T
molecule="CNS(=O)(=O)CCCN1CCC(CNC(=O)c2cc(C)cc3c2OCCCO3)C(O)C1 (stereo not shown)" discrete_label=T
molecule="Cc1cc2c(c(C(=O)NCC3CCN(CCCCS(N)(=O)=O)CC3O)c1)OCCCO2 (stereo not shown) [Compound 20]" discrete_label=F

Item Cc1ccc(C(=O)NC[C@@H]2CCN(CCCC(=O)NS(C)(=O)=O)C[C@H]2O)c2c1OCCCO2 with % metabolised compound after 60 minutes of 8% or above? F

Item Cc1cc2c(c(C(=O)NCC3CCN(CCCCS(N)(=O)=O)CC3O)c1)OCCCO2 (stereo not shown) [Compound 38] with % metabolised compound after 60 minutes of 8% or above? F

Item NS(=O)(=O)CCCCN1CC[C@@H](CNC(=O)c2cc(Cl)c(Cl)c3c2OCCCO3)[C@H](O)C1 (relative stereo) with % metabolised compound after 60 minutes of 8% or above? T

Item Cc1ccc(C(=O)NCC2CCN(CCCS(N)(=O)=O)CC2O)c2c1OCCCO2 (stereo not shown) with % metabolised compound after 60 minutes of 8% or above? F

Item CO[C@@H]1CN(CCCCS(N)(=O)=O)CC[C@H]1CNC(=O)c1cc(F)cc2c1OCCCO2 (relative stereo) with % metabolised compound after 60 minutes of 8% or above? T

Item CS(=O)(=O)NC(=O)CCCN1CC[C@@H](CNC(=O)c2cc(Cl)cc3c2OCCCO3)[C@H](O)C1 with % metabolised compound after 60 minutes of 8% or above? T

Item NS(=O)(=O)CCN1CC[C@@H](CNC(=O)c2cc(Cl)cc3c2OCCCO3)[C@H](O)C1 with % metabolised compound after 60 minutes of 8% or above? T

Item NS(=O)(=O)CCCCN1CC[C@@H](CNC(=O)c2cc(Cl)cc3c2OCCCO3)[C@H](O)C1 with % metabolised compound after 60 minutes of 8% or above? T

Item Cc1cc2c(c(C(=O)NC[C@@H]3CCN(CCS(N)(=O)=O)C[C@H]3O)c1)OCCCO2 with % metabolised compound after 60 minutes of 8% or above? T

Item NS(=O)(=O)CCCCN1CCC(CNC(=O)c2cc(Cl)c(Br)c3c2OCCCO3)C(O)C1 (stereo not shown) with % metabolised compound after 60 minutes of 8% or above? T

Item Cc1cc2c(c(C(=O)NCC3(O)CCN(CCCCS(N)(=O)=O)CC3)c1)OCCCO2 with % metabolised compound after 60 minutes of 8% or above? F

Item COc1ccc(C(=O)NCC2(O)CCN(CCCCS(N)(=O)=O)CC2)c2c1OCCCO2 with % metabolised compound after 60 minutes of 8% or above? F
